system: TZM-bl cell line; type: cell-based; settings: human, 1 μM
outcome-measure: Percent Viability @ 1 μM (TZM-bl cells) (%)
Field format: number, assumed %, no unit text.

compound	outcome-measure	readout-number
CC(=O)N1CCC(Cc2c(-c3ccc(C(F)(F)F)cc3)nn(-c3nc4ccccc4[nH]3)c2O)CC1 [Compound I-720]	Percent Viability @ 1 μM (TZM-bl cells)	71.4
CN1CCN(CC(=O)N2CCC(Cc3nn(-c4nc5ccccc5[nH]4)c(O)c3CCc3ccc(F)cc3)CC2)CC1 [Compound I-768]	Percent Viability @ 1 μM (TZM-bl cells)	99.8
CC(C)CS(=O)(=O)N1CCC(c2nn(-c3nc4ccccc4[nH]3)c(O)c2CCc2ccc(F)cc2)CC1 [Compound I-750]	Percent Viability @ 1 μM (TZM-bl cells)	93.0

Shift focus to the following entry.
q: Return value of Percent Viability @ 1 μM (TZM-bl cells) for input CC(=O)N1CCC(CCc2c(-c3ccc(C(F)(F)F)cc3)nn(-c3nc4ccccc4[nH]3)c2O)CC1 [Compound I-719] , no commentary.
a: 98.0

* * *

target: HIV-1 NefNL4-3 (Human immunodeficiency virus type 1 group M subtype B, UniProt P03406, A33V/T15A/T51N/V11I); experiment: Surface plasmon resonance binding to recombinant full-length Nef (NL4-3); conditions: KD, M, Table 4; SPR fit 2-step induced fit, KD = koff/kon × koff2/(koff2 + kon2)
// pKd lookup, one value per entry
pKd (log units): -log10 of the concentration in mol/L.

For orientation, consider the following solved cases.
compound	readout-number
CC(=O)N1CCC(c2nn(-c3nc4ccccc4[nH]3)c(O)c2Cc2ccc(F)c(F)c2)CC1 [Compound I-744]	5.71
O=C(c1ccc(F)cc1)N1CCC(CCc2c(C3CC3)nn(-c3nc4cc(Cl)ccc4[nH]3)c2O)CC1 [Compound I-710]	5.61
CC(C)(C)c1nn(-c2nc3ccccc3[nH]2)c(O)c1CCc1ccc(F)cc1 [Compound I-130]	5.42

# ---- query compound ----
q: Return reported pKd. Input compound: Oc1c(CCc2ccncc2)c(-c2ccc(C(F)(F)F)cc2)nn1-c1nc2ccccc2[nH]1 [Compound I-101]
a: 9.54

* * *

// reported Kd per item
biological target: HIV-1 NefNL4-3 (Human immunodeficiency virus type 1 group M subtype B, UniProt P03406, A33V/T15A/T51N/V11I); test: Surface plasmon resonance binding to recombinant full-length Nef (NL4-3); details: Nef NL4-3 Binding, SPR 2-state fitting KD, Table 1; 2-step induced-fit model
Write the number in nM without appending the unit.

Previously resolved entries follow.
smiles-str	Kd / nM
O=C(OCc1ccccc1)N1CCC(c2nn(-c3nc4cccnc4[nH]3)c(O)c2CCc2ccc(F)cc2)CC1	731
Oc1c(CCC2CCN(CC(F)(F)F)CC2)c(-c2ccc(C(F)(F)F)cc2)nn1-c1nc2ccccc2[nH]1	1.24
O=C(c1ccc(F)cc1)N1CCC(CCc2c(C3CC3)nn(-c3nc4cc(Cl)ccc4[nH]3)c2O)CC1	2460
CS(=O)(=O)c1ccc(-c2nn(-c3nc4cc(F)ccc4[nH]3)c(O)c2CCC2CCOCC2)cc1	7400
Oc1c(CCc2ccc(F)cc2)c(C2CC2)nn1-c1nc2cccnc2[nH]1	4060
CC(C)(C)c1nn(-c2nc3ccccc3[nH]2)c(O)c1CCc1ccc(F)cc1	3800

Next:
q: Fill in reported Kd for this entry: O=C(c1ccoc1)N1CCC(c2nn(-c3nc4ccccc4[nH]3)c(O)c2CCc2ccc(F)cc2)CC1
a: 1.7
